tested on: P388 leukemia ip, CD2F1 mice, survival T/C; assay: NCI In Vivo Anticancer Drug Screen. Data for tumor model P388 Leukemia (intraperitoneal) in CD2F1 (CDF1) mice; conditions: endpoint: median survival time; dose: 7.5 mg/kg/injection; schedule: Q01DX005 (ip); vehicle: saline; higher = longer survival
Toxic doses and inconclusive results are not listed.
measured parameter: T/C

Known results for molecules:
molecule | value observed
C/C=C/C(C#N)O[Si](C)(C)C (centres undefined) | 113 % of control
CN(C)CC(CN(C)C)C(=O)c1ccc(Oc2ccc(Cl)c(Cl)c2)cc1 | 117 % of control
CC1CCC(C(C)C)C(OC(=O)c2cccc[n+]2C)C1 (centres undefined) | 103 % of control

Please turn your attention to the following entry.
Give the reported T/C for this molecule. Cc1ccc2nc(=O)c3cccnc3n2c1 97 % of control

* * *

For each record, write down the corresponding T/C.
tested on: P388 leukemia ip, CD2F1 mice, survival T/C; assay: NCI In Vivo Anticancer Drug Screen. Data for tumor model P388 Leukemia (intraperitoneal) in CD2F1 (CDF1) mice; settings: endpoint: median survival time; dose: 100.0 mg/kg/injection; schedule: Q01DX005 (ip); vehicle: saline with Tween-80; higher = longer survival
Toxic doses and inconclusive results are not listed.

structure smiles string | T/C
Cc1cc(N=Nc2cc(C)c(NC(=O)c3ccc(NC(=O)c4ccc(N)cc4)cc3)cc2C)ccc1N=Nc1ccc2cc(S(=O)(=O)O)cc(S(=O)(=O)O)c2c1 | 111 % of control
c1ccc(-c2ccc[n+](CCC[n+]3cccc(-c4ccccn4)c3)c2)nc1 | 114 % of control
S=c1ncnc2cc3[nH][nH]cc3cc12 | 86 % of control
O=C(CSc1ccccn1)C1=S=C2C=CC=CN2C1=O | 95 % of control
CC(=O)CC1C(=O)OC(C)(C)OC1=O | 106 % of control

Please turn your attention to the following entry.
Give the reported T/C for this compound. C=CCOc1c(C=O)cccc1OC 108 % of control

* * *

test system: P388 leukemia ip, CD2F1 mice, survival T/C; assay: NCI In Vivo Anticancer Drug Screen. Data for tumor model P388 Leukemia (intraperitoneal) in CD2F1 (CDF1) mice; settings: endpoint: median survival time; dose: 25.0 mg/kg/injection; schedule: Q04DX003 (ip); vehicle: saline with Tween-80; higher = longer survival
Inconclusive results and toxic doses are left out.
measured parameter: T/C

Known results for compounds:
structure smiles string | measured parameter | value observed
O=NN(CCCl)C(=O)Nc1ccccc1 | T/C | 91 % of control
CC(=N/NC(=S)NCCN1CCCC1)/C(C)=N\NC(=S)NCCN1CCCC1 | T/C | 100 % of control
CC(C)COP(=O)(OCC(C)C)OCC(C)C.CC(C)COP(=O)(OCC(C)C)OCC(C)C.CC(C)COP(=O)(OCC(C)C)OCC(C)C.CC(C)COP(=O)(OCC(C)C)OCC(C)C.O.O.[Co+2].[O-][Cl+3]([O-])([O-])O | T/C | 94 % of control

Consider the compound COc1cc2c(/C=N/NC(N)=S)c(Cl)[nH]c2cc1C tested on P388 leukemia ip, CD2F1 mice, survival T/C; state its T/C. 105 % of control

* * *

tested on: P388 leukemia ip, CD2F1 mice, survival T/C; test: NCI In Vivo Anticancer Drug Screen. Data for tumor model P388 Leukemia (intraperitoneal) in CD2F1 (CDF1) mice; details: endpoint: median survival time; dose: 100.0 mg/kg/injection; schedule: Q01DX001 (ip); vehicle: saline with Tween-80; higher = longer survival
Toxic doses and inconclusive results are not listed.
For each record, write down the corresponding T/C.

compound | T/C
COc1cc2c(/C=N/NC(N)=S)c(Cl)[nH]c2cc1C | 102 % of control
CCNc1nn2ccccc2c1/C=C(/C#N)C(=O)OCC | 91 % of control
NC(N)=NS(=O)(=O)c1ccc(N=NC2=C(O)C(c3ccccc3)N(c3ccccc3)C2=O)cc1 (stereo not given) | 102 % of control
CO/N=C1/C=CC(Cl)=C/C1=C(\c1ccccc1Cl)C(C#N)c1ccccc1Cl (stereo not given) | 94 % of control
O=S(=O)(c1ccccc1)N1CC2(CN(S(=O)(=O)c3ccccc3)c3ccccc31)CN(S(=O)(=O)c1ccccc1)c1ccccc1N(S(=O)(=O)c1ccccc1)C2 | 90 % of control
Cc1cc2ccccc2c(N=Cc2cc(Br)cc(Br)c2O)c1C#N | 95 % of control

Give T/C for each listed item.
1. O=C1C2C3C=CC(C2C(=O)N1c1ccccc1)C1C2C(=O)N(c4ccccc4)C(=O)C2C31 (stereo not given)
2. CN(C)/C=C1\C(=O)O[C@H]2CCC[C@@]12C
3. CCOC(=O)Nc1c(C)noc1NC(C)=O
4. CCOC(=O)N(CCCl)C(=O)C(C)C

1: 88 % of control; 2: 107 % of control; 3: 100 % of control; 4: 104 % of control
